- assay notes: self-splicing fitness, log relative to wild type (ln ratio); higher = more splicing; Tetrahymena group I intron in knt gene, E. coli kanamycin selection, DiMSum; sequences stand for … in CUCUCU…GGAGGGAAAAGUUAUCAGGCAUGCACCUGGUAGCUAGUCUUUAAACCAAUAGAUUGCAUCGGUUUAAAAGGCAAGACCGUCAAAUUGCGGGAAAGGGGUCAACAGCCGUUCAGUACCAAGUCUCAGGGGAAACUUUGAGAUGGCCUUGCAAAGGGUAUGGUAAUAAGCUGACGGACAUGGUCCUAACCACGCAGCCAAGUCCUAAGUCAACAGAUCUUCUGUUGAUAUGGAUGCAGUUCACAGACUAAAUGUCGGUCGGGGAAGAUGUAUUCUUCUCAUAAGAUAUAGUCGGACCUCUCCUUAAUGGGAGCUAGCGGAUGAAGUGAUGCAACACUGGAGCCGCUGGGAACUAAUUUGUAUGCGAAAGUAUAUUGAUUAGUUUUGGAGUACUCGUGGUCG;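 also: selection with 25 µg/mL kanamycin versus none on LB agar overnight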
- condition set: 37 °C
recorded endpoint: self-splicing fitness (ln)

[[record]]
construct_sequence = "UUUUAGCAAUAUUACGGCGC"
recorded_endpoint = "self-splicing fitness (ln)"
obs_value = -0.567

[[record]]
construct_sequence = "UUCGAGCAAUAUUACGGGUU"
recorded_endpoint = "self-splicing fitness (ln)"
obs_value = -2.78

[[record]]
construct_sequence = "ACCUAGCAAUAUUACGGAUG"
recorded_endpoint = "self-splicing fitness (ln)"
obs_value = -1.24

[[record]]
construct_sequence = "AACUAGCAAUAUUACGGGCU"
recorded_endpoint = "self-splicing fitness (ln)"
obs_value = -1.19

[[record]]
construct_sequence = "GUAAAGCAAUAUUACGCGCA"
recorded_endpoint = "self-splicing fitness (ln)"
obs_value = -0.0064

[[record]]
construct_sequence = "CUUUAGCAAUAUUACGUGGU"
recorded_endpoint = "self-splicing fitness (ln)"
obs_value = -2.8

[[record]]
construct_sequence = "CGUCAGCAAUAUUACGACUA"
recorded_endpoint = "self-splicing fitness (ln)"
obs_value = 0.632

[[record]]
construct_sequence = "CUACAGCAAUAUUACGGGCC"
recorded_endpoint = "self-splicing fitness (ln)"
obs_value = -3.03

[[record]]
construct_sequence = "GACCAGCAAUAUUACGUUUA"
recorded_endpoint = "self-splicing fitness (ln)"
obs_value = -0.0736

[[record]]
construct_sequence = "UAUAAGCAAUAUUACGGUAU"
recorded_endpoint = "self-splicing fitness (ln)"
obs_value = -2.25

[[record]]
construct_sequence = "GCGGAGCAAUAUUACGACGG"
recorded_endpoint = "self-splicing fitness (ln)"
obs_value = -1.13

[[record]]
construct_sequence = "AGACAGCAAUAUUACGCAGC"
recorded_endpoint = "self-splicing fitness (ln)"
obs_value = -2.19

[[record]]
construct_sequence = "CUUCAGCAAUAUUACGGACU"
recorded_endpoint = "self-splicing fitness (ln)"
obs_value = -2.66

[[record]]
construct_sequence = "AUCGAGCAAUAUUACGAAAU"
recorded_endpoint = "self-splicing fitness (ln)"
obs_value = -1.87

[[record]]
construct_sequence = "CGAGAGCAAUAUUACGCGAU"
recorded_endpoint = "self-splicing fitness (ln)"
obs_value = -1.04

[[record]]
construct_sequence = "GUCGAGCAAUAUUACGCAAC"
recorded_endpoint = "self-splicing fitness (ln)"
obs_value = -0.123

[[record]]
construct_sequence = "AAAGAGCAAUAUUACGUUCG"
recorded_endpoint = "self-splicing fitness (ln)"
obs_value = -0.974

[[record]]
construct_sequence = "CGAAAGCAAUAUUACGUCAG"
recorded_endpoint = "self-splicing fitness (ln)"
obs_value = 0.335

[[record]]
construct_sequence = "ACUUAGCAAUAUUACGCGGC"
recorded_endpoint = "self-splicing fitness (ln)"
obs_value = -1.12

[[record]]
construct_sequence = "GGAUAGCAAUAUUACGGUGU"
recorded_endpoint = "self-splicing fitness (ln)"
obs_value = -1.05

[[record]]
construct_sequence = "CUAGAGCAAUAUUACGAACA"
recorded_endpoint = "self-splicing fitness (ln)"
obs_value = -2.05

[[record]]
construct_sequence = "GAUGAGCAAUAUUACGGGUU"
recorded_endpoint = "self-splicing fitness (ln)"
obs_value = -2.6

[[record]]
construct_sequence = "AUUGAGCAAUAUUACGUUCA"
recorded_endpoint = "self-splicing fitness (ln)"
obs_value = -0.11

[[record]]
construct_sequence = "CAGUAGCAAUAUUACGGAUA"
recorded_endpoint = "self-splicing fitness (ln)"
obs_value = -2.79

[[record]]
construct_sequence = "UACCAGCAAUAUUACGUUUC"
recorded_endpoint = "self-splicing fitness (ln)"
obs_value = -2.56

[[record]]
construct_sequence = "AGACAGCAAUAUUACGGCUA"
recorded_endpoint = "self-splicing fitness (ln)"
obs_value = -0.286

[[record]]
construct_sequence = "CAGUAGCAAUAUUACGUCGU"
recorded_endpoint = "self-splicing fitness (ln)"
obs_value = -2.44

[[record]]
construct_sequence = "UUCGAGCAAUAUUACGCUAA"
recorded_endpoint = "self-splicing fitness (ln)"
obs_value = -1.61

[[record]]
construct_sequence = "GAUUAGCAAUAUUACGCACA"
recorded_endpoint = "self-splicing fitness (ln)"
obs_value = -0.721

[[record]]
construct_sequence = "GCACAGCAAUAUUACGCAGA"
recorded_endpoint = "self-splicing fitness (ln)"
obs_value = -3.06

[[record]]
construct_sequence = "CAAAAGCAAUAUUACGUAUG"
recorded_endpoint = "self-splicing fitness (ln)"
obs_value = -2.22

[[record]]
construct_sequence = "AGCCAGCAAUAUUACGUUAA"
recorded_endpoint = "self-splicing fitness (ln)"
obs_value = -2.59

[[record]]
construct_sequence = "CCAAAGCAAUAUUACGAGGG"
recorded_endpoint = "self-splicing fitness (ln)"
obs_value = -1.56

[[record]]
construct_sequence = "GGAGAGCAAUAUUACGUGGA"
recorded_endpoint = "self-splicing fitness (ln)"
obs_value = -3.26

